Tested on: MDA-MB-468 breast
ASSAY INFO: NCI tumour cell line growth inhibition, 48 h
REPORTED METRIC: TGI (µM)
Write the answer as a number in µM, unit excluded.

Cc1cc(Cc2cc(C)cc(C(C)(C)C)c2O)c(O)c(C(C)(C)C)c1    24.2
CN1CCN(Cc2ccc(NC(=O)c3ccc(C#Cc4c(N)ncc5ccc(F)cc45)cc3)cc2C(F)(F)F)CC1    1.97
O=C(Cc1cccc(OC(F)(F)F)c1)Nc1ccc(CCCCc2nnc(NC(=O)Cc3ccccn3)s2)nn1    58.5
COc1cc(-c2nc3sc4c(c3c(=O)[nH]2)CCCCCC4)cc(OC)c1OC    3.01

Turning to the following compound.
Exercise: GET /values?readout=TGI&item= `O=Nc1ccc2ccccc2c1O`
Solution: 34.9

====

Test system: MDA-MB-468 breast
ASSAY INFO: NCI tumour cell line growth inhibition, 48 h; in the data active = GI50 below about 0.43 µM; inactive = the rest
Choose the fitting class; nothing outside label 1 for active, label 0 for inactive is accepted.

Here's what some known entries look like.
O=Nc1ccc2ccccc2c1O    label 0
O=c1[nH]cnc2[nH]ncc12    label 0
COC(=O)[C@]12CC[C@@H](C)[C@H](C)[C@@H]1C1=CC[C@@H]3[C@@]4(C)C=C(O)C(=O)[C@@]5(C)COC(=C54)C[C@@]3(C)[C@]1(C)CC2    label 0
COc1ccc2c(c1)C(=O)/C(=C/c1ncc([N+](=O)[O-])n1C)O2    label 0
Cc1c(C)[n+](=O)c(C)c(C)n1[O-]    label 0
Cc1c2c[n+](C(C)C)ccc2c(C)c2c1[nH]c1ccccc12    label 1
COc1ccc2c(c1)C(c1ccccc1Cl)=Nc1c(n[nH]c1C)N2    label 0

Now for another entry.
Exercise: Recorded test call requested for `O=C(Nc1ccc(Cl)cc1)c1cc(-c2ccc(Cl)cc2)c2sc(=O)[nH]c2n1`
Solution: label 0

====

Test system: MDA-MB-468 breast
ASSAY INFO: NCI tumour cell line growth inhibition, 48 h
This listing pairs compounds with measured log10 TGI.
Recall that a logarithmic scale is used here: each number is log10 of TGI in µM.

Consider the worked cases shown below.
CCCCCCCCCCCCSC(=N)N    1.31
CCN1c2ccccc2C(Cl)(c2ccc(N(C)C)cc2)c2ccccc21    1.19
C#CC(F)(F)[C@]1(O)CC[C@H]2[C@@H]3CCC4=CC(=O)CCC4=C3[C@@H](c3ccc(C(C)=O)cc3)C[C@@]21C    1.53

Turning to the following compound.
Exercise: GET /values?readout=log10 TGI&item= `Cc1cc(C)c(O)c(CN(C)Cc2cc(Cl)cc(Cl)c2O)c1`
Solution: 1.07

====

System: MDA-MB-468 breast
ASSAY INFO: NCI tumour cell line growth inhibition, 48 h
REPORTED METRIC: TGI (µM)
Write the answer as a number in µM, unit excluded.

Consider the worked cases shown below.
CN(C)C(=O)c1cc2cnc(Nc3ccc(-c4csc5c(=O)cc(N6CCOCC6)oc45)cc3)nc2n1C1CCCC1    0.397
O=C(Nc1ccc(Cl)cc1)c1cc(-c2ccc(Cl)cc2)c2sc(=O)[nH]c2n1    6.62
COc1ccc2nc3cc(Cl)ccc3c(NCCCNCCC(C)O)c2c1 (stereo not given)    1.78

Turning to the following compound.
Exercise: GET /values?readout=TGI&item= `O=C(CCl)N1c2ccccc2Sc2ccc3ccccc3c21`
Solution: 1.46

====

Tested on: MDA-MB-468 breast
ASSAY INFO: NCI tumour cell line growth inhibition, 48 h
This listing pairs compounds with measured TGI.
Write the answer as a number in µM, unit excluded.

COc1ccc(Cl)cc1NC(=O)C(Br)C(Br)C(=O)O (stereo unspecified)    2.27
CC(C)NC(=O)OCc1c(COC(=O)NC(C)C)c(-c2ccc(Cl)cc2)n2c1CCC2    2.5
COC(=O)[C@]12CC[C@@H](C)[C@H](C)[C@@H]1C1=CC[C@@H]3[C@@]4(C)C=C(O)C(=O)[C@@]5(C)COC(=C54)C[C@@]3(C)[C@]1(C)CC2    19.9

Turning to the following compound.
Exercise: API: value(readout= TGI, system= MDA-MB-468 breast, query= `CSc1ccc2c3c(n(C[C@H](O)CO)c(=O)c2c1)-c1ccccc1C3=O` )
Solution: 5.78
